Data provenance is patent US20240368192A1.

- System: AGS cells
- Assay Details: Proliferation inhibitory activity on AGS tumor cell line containing KRAS G12D mutation (CellTiter-Glo, 72 hours)
- Assay type: cell-based
- Assay Context: Homo sapiens
Readout Label: IC50 (nM)
All answers are understood in nM, so give the number only.

>>> endpoint_value("C#Cc1c(F)ccc2cc(O)cc(-c3nc(Cl)c4c(N5C[C@H]6CC[C@@H](C5)N6)nc(OC[C@@]56CCCN5C[C@H](F)C6)nc4c3F)c12 [Compound 21]")
9
>>> endpoint_value("[2H]C([2H])(Oc1nc(N2C[C@H]3CC[C@@H](C2)N3)c2c(Cl)nc(-c3cc(O)cc4ccc(F)c(C#C)c34)c(F)c2n1)[C@@]12CCCN1C[C@H](F)C2 [Compound 27]")
6

Let us examine a further case.
The reported AGS cells IC50 of Oc1cc(-c2nc(Cl)c3c(N4C[C@H]5CC[C@@H](C4)N5)nc(OC[C@@]45CCCN4C[C@H](F)C5)nc3c2F)c2c(F)c(F)ccc2c1 [Compound 26] is 28

* * *

- Target Or System: Ba/F3 KRAS-G12D cells (Homo sapiens, UniProt P01116, G12D, cells depend on it)
- Sequence (P01116 whole entry G12D): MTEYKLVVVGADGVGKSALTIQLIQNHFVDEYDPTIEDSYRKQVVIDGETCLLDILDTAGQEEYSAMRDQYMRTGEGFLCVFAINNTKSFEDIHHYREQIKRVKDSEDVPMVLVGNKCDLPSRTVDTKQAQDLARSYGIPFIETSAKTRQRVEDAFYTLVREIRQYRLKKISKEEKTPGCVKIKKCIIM
- Assay Details: Proliferation inhibitory activity on Ba/F3 KRAS-G12D stably transfected cell line (CellTiter-Glo, 72 hours)
- Type: cell-based, mouse
- Assay Context: read-out: Ba/F3 KRAS-G12D IC50
Readout Label: GI50

The following compounds have reported results that may help.
>>> endpoint_value("Cc1cc(N)nc(-c2nc(Cl)c3c(N4C[C@H]5CC[C@@H](C4)N5)nc(OC[C@@]45CCCN4C[C@H](F)C5)nc3c2F)c1C(F)(F)F [Compound 17, bis(2,2,2-trifluoroacetate)]")
"100 to 5000 nM"
>>> endpoint_value("C#Cc1c(F)ccc2cc(O)cc(-c3ncc4c(N5[C@H]6CC[C@@H]5[C@@H](F)[C@H](N)C6)nc(OC[C@@]56CCCN5C[C@H](F)C6)nc4c3F)c12")
"1900 nM"

GET /value?item= C#Cc1c(F)ccc2cc(O)cc(-c3ncc4c(N5CCC(N)C(F)(F)C5)nc(OC[C@@]56CCCN5C[C@H](F)C6)nc4c3F)c12 (single isomer, unassigned) [Compound 20-P1] &field=GI50 returns ≤ 100 nM

GET /value?item= `C#Cc1c(F)ccc2cc(O)cc(-c3ncc4c(N5CCC[C@H](N)C5)nc(OC[C@@]56CCCN5C[C@H](F)C6)nc4c3F)c12` &field=GI50 returns 5000 to 10000 nM

GET /value?item= C#Cc1c(F)ccc2cc(O)cc(-c3ncc4c(N5C[C@H](N)CC(F)(F)C5)nc(OC[C@@]56CCCN5C[C@H](F)C6)nc4c3F)c12 [Compound 6-P1] &field=GI50 returns 100 to 5000 nM

GET /value?item= C#Cc1c(F)ccc2cc(O)cc(-c3ncc4c(N5C[C@H]6C[C@@]6(N)C5)nc(OC[C@@]56CCCN5C[C@H](F)C6)nc4c3F)c12 [Compound 10, bis(2,2,2-trifluoroacetate)] &field=GI50 returns 100 to 5000 nM

* * *

- Test system: AGS cells
- Assay Details: Proliferation inhibitory activity on AGS tumor cell line containing KRAS G12D mutation (CellTiter-Glo, 72 hours)
- Assay type: cell-based
- Assay Context: Homo sapiens
Where a name gives a salt, the structure may show the parent alone.
Readout Label: IC50 (nM)
All answers are understood in nM, so give the number only.

>>> endpoint_value("[2H]C#Cc1c(F)ccc2cc(O)cc(-c3nc(Cl)c4c(N5C[C@H]6CC[C@@H](C5)N6)nc(OC[C@@]56CCCN5C[C@H](F)C6)nc4c3F)c12 [Compound 28, hydrochloride]")
6
>>> endpoint_value("C#Cc1c(F)ccc2cc(O)cc(-c3ncc4c(N5[C@@H]6CC[C@H]5[C@H](F)[C@@H](N)C6)nc(OC[C@@]56CCCN5C[C@H](F)C6)nc4c3F)c12")
2500
>>> endpoint_value("C#Cc1c(F)ccc2cc(O)cc(-c3ncc4c(C5=C[C@@H]6CC[C@H](C5)N6)nc(OC[C@@]56CCCN5C[C@H](F)C6)nc4c3F)c12")
2500

GET /value?item= `C#Cc1c(F)ccc2cc(O)cc(-c3nc(F)c4c(N5C[C@H]6CC[C@@H](C5)N6)nc(OC[C@@]56CCCN5C[C@H](F)C6)nc4c3F)c12` &field=IC50 returns 16

* * *

- Target Or System: Ba/F3 KRAS-G12D cells (Homo sapiens, UniProt P01116, G12D, cells depend on it)
- Assay Details: Proliferation inhibitory activity on Ba/F3 KRAS-G12D stably transfected cell line (CellTiter-Glo, 72 hours)
- Assay type: cell-based, mouse
- Assay Context: read-out: Ba/F3 KRAS-G12D IC50
- From the text: Test Example 1: Proliferation Inhibitory Activity on Ba/F3 KRAS-G12D, Ba/F3 KRAS-G12V Stably Transfected Cell Lines and AGS Tumor Cell Lines Containing KRAS G12D Mutations To determine the proliferation inhibitory activity of the compounds in vitro on mouse pro-B cells Ba/F3 (Ba/F3 KRAS-G12D and Ba/F3 KRAS-G12V cells stably expressing KRAS G12D/V mutant proteins) and gastric cancer AGS cells expressing KRAS G12D mutant protein. Cell sources. […]
Structures can show the parent of a compound that is named as a salt.
Readout Label: GI50 (nM)
All answers are understood in nM, so give the number only.

The following molecules have reported results that may help.
>>> endpoint_value("C#Cc1c(F)ccc2cc(O)cc(-c3ncc4c(N5[C@@H]6CC[C@H]5[C@H](F)[C@@H](N)C6)nc(OC[C@@]56CCCN5C[C@H](F)C6)nc4c3F)c12 [Compound 25]")
1000
>>> endpoint_value("C#Cc1c(F)ccc2cc(O)cc(-c3nc(F)c4c(N5C[C@H]6CC[C@@H](C5)N6)nc(OC[C@@]56CCCN5C[C@H](F)C6)nc4c3F)c12 [Compound 22]")
2
>>> endpoint_value("[2H]C#Cc1c(F)ccc2cc(O)cc(-c3nc(Cl)c4c(N5C[C@H]6CC[C@@H](C5)N6)nc(OC[C@@]56CCCN5C[C@H](F)C6)nc4c3F)c12 [Compound 28, hydrochloride]")
1
>>> endpoint_value("Oc1cc(-c2nc(Cl)c3c(N4C[C@H]5CC[C@@H](C4)N5)nc(OC[C@@]45CCCN4C[C@H](F)C5)nc3c2F)c2c(F)c(F)ccc2c1 [Compound 26]")
1.7
>>> endpoint_value("C#Cc1c(F)ccc2cc(O)cc(-c3nc(Cl)c4c(N5C[C@H]6CC[C@@H](C5)N6)nc(OC[C@@]56CCCN5C[C@H](F)C6)nc4c3F)c12 [Compound 21]")
1

GET /value?item= [2H]C([2H])(Oc1nc(N2C[C@H]3CC[C@@H](C2)N3)c2c(Cl)nc(-c3cc(O)cc4ccc(F)c(C#C)c34)c(F)c2n1)[C@@]12CCCN1C[C@H](F)C2 [Compound 27] &field=GI50 returns 1

* * *

- Test system: AGS cells
- Assay Details: Proliferation inhibitory activity on AGS tumor cell line containing KRAS G12D mutation (CellTiter-Glo, 72 hours)
- Format: cell-based
- Assay Context: Homo sapiens
Readout Label: IC50

The following molecules have reported results that may help.
>>> endpoint_value("C#Cc1c(F)ccc2cc(O)cc(-c3ncc4c(N5C[C@H](N)CC(F)(F)C5)nc(OC[C@@]56CCCN5C[C@H](F)C6)nc4c3F)c12 [Compound 6-P1]")
"5 to 10 µM"
>>> endpoint_value("C#Cc1c(F)ccc2cc(O)cc(-c3ncc4c(N5C[C@H]6C[C@@]6(N)C5)nc(OC[C@@]56CCCN5C[C@H](F)C6)nc4c3F)c12 [Compound 10, bis(2,2,2-trifluoroacetate)]")
"0.1 to 5 µM"
>>> endpoint_value("C#Cc1c(F)ccc2cc(O)cc(-c3ncc4c(N5[C@H]6CC[C@@H]5[C@@H](F)[C@H](N)C6)nc(OC[C@@]56CCCN5C[C@H](F)C6)nc4c3F)c12 [Compound 24]")
"2.5 µM"

Let us examine a further case.
GET /value?item= Cc1cc(N)nc(-c2nc(Cl)c3c(N4C[C@H]5CC[C@@H](C4)N5)nc(OC[C@@]45CCCN4C[C@H](F)C5)nc3c2F)c1C(F)(F)F [Compound 17, bis(2,2,2-trifluoroacetate)] &field=IC50 returns 5 to 10 µM

* * *

- Target Or System: Ba/F3 KRAS-G12D cells (Homo sapiens, UniProt P01116, G12D, cells depend on it)
- Assay Details: Proliferation inhibitory activity on Ba/F3 KRAS-G12D stably transfected cell line (CellTiter-Glo, 72 hours)
- Type: cell-based, mouse
- Assay Context: read-out: Ba/F3 KRAS-G12D IC50
Readout Label: GI50

The following compounds have reported results that may help.
>>> endpoint_value("C#Cc1c(F)ccc2cc(O)cc(-c3ncc4c(N5C[C@@H]6C[C@]6(N)C5)nc(OC[C@@]56CCCN5C[C@H](F)C6)nc4c3F)c12")
"5 to 10 µM"
>>> endpoint_value("Cc1cc(N)nc(-c2nc(F)c3c(N4C[C@H]5CC[C@@H](C4)N5)nc(OC[C@@]45CCCN4C[C@H](F)C5)nc3c2F)c1C(F)(F)F [Compound 18, bis(2,2,2-trifluoroacetate)]")
"0.1 to 5 µM"
>>> endpoint_value("C#Cc1c(F)ccc2cc(O)cc(-c3ncc4c(N5CCC(N)C(F)(F)C5)nc(OC[C@@]56CCCN5C[C@H](F)C6)nc4c3F)c12 (single isomer, unassigned) [Compound 20-P2]")
"0.1 to 5 µM"

GET /value?item= C#Cc1c(F)ccc2cc(O)cc(-c3ncc4c(N5C[C@@H](N)CC(F)(F)C5)nc(OC[C@@]56CCCN5C[C@H](F)C6)nc4c3F)c12 [Compound 6-P2] &field=GI50 returns ≤ 0.1 µM

GET /value?item= `C#Cc1c(F)ccc2cc(O)cc(-c3ncc4c(N5CC[C@H](N)C5)nc(OC[C@@]56CCCN5C[C@H](F)C6)nc4c3F)c12` &field=GI50 returns 5 to 10 µM
